molecular target: Opioid receptors; delta & kappa (Homo sapiens) (UniProt P41145+P41143); test: Selectivity for cloned human kappa opioid receptor over delta opioid receptor; assay type: protein assay
Sequence (P41143 whole entry, looked up): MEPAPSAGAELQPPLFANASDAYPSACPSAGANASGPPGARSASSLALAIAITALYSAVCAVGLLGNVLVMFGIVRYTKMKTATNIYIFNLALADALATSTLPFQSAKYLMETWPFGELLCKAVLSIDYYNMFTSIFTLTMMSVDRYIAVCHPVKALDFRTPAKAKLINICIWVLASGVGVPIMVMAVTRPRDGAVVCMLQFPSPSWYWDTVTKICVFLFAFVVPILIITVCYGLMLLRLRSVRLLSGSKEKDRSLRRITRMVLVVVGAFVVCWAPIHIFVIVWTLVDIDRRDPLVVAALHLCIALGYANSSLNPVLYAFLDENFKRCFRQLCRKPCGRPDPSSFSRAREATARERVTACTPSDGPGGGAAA
Sequence (P41145 whole entry, looked up): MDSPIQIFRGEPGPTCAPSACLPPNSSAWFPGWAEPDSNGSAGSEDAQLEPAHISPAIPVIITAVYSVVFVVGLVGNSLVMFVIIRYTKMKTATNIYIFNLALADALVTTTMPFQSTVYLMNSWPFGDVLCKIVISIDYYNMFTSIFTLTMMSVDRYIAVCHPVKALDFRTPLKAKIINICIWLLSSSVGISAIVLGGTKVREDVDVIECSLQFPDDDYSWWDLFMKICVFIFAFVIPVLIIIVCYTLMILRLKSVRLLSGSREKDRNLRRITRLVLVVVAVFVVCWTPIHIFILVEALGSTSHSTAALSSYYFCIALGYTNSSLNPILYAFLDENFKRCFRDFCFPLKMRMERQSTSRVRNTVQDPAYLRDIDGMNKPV
Observation Type: Ratio Ki

What does the record list as Ratio Ki for O=C(Nc1ccccc1)N1CCC(c2ccccc2)(c2nccn2Cc2ccccc2)CC1 ?
1.6

Would you kindly share the measured Ratio Ki for O=C(Nc1ccccc1)N1CCC(c2ccccc2)(c2nccn2Cc2cccc(F)c2)CC1 ?
15

What value of measured Ratio Ki is listed for O=C(Nc1ccccc1)N1CCC(c2ccccc2)(c2nccn2Cc2ccccn2)CC1 ?
0.015

Data request, read-out Ratio Ki, for O=C(Nc1ccc(F)cc1)N1CCC(c2ccccc2)(c2nccn2Cc2ccccc2)CC1
1.5

Sample NS(=O)(=O)N1CCC(c2ccccc2)(c2nccn2Cc2ccccc2)CC1 — what was its Ratio Ki?
> 44

Please report the recorded Ratio Ki for COc1cccc(Cn2ccnc2C2(c3ccccc3)CCN(C(=O)Nc3ccccc3)CC2)c1 .
9

Look up Ratio Ki for this compound: CN1CCN(C(=O)N2CCC(c3ccccc3)(c3nccn3Cc3ccccc3)CC2)CC1
5.3

Fill in: Ratio Ki of c1ccc(Cn2ccnc2C2(c3ccccc3)CCN(c3ncccn3)CC2)cc1 is ___
28

Consider the compound CS(=O)(=O)N1CCC(c2ccccc2)(c2nccn2Cc2ccccc2)CC1 and give its measured Ratio Ki.
44

# Ratio Ki lookup, item NC(=O)N1CCC(c2ccccc2)(c2nccn2Cc2ccccc2)CC1
3.4

Name the recorded Ratio Ki for c1ccc(Cn2ccnc2C2(c3ccccc3)CCN(c3nccs3)CC2)cc1 .
32

GET /values?readout=Ratio Ki&item= O=C(Nc1ccccc1)N1CCC(c2ccccc2)(c2nccn2C(=O)c2ccccc2)CC1
0.32

Given the compound Cn1c(N2CCC(c3ccccc3)(c3nccn3Cc3ccccc3)CC2)nc2ccccc21 , what is its reported Ratio Ki?
0.29

Item under review: O=C(Nc1ccccc1)N1CCC(c2ccccc2)(c2nccn2Cc2ccc(F)cc2)CC1 . Reported Ratio Ki?
11

----------
Answer each item with its documented Ratio Ki.
target: Opioid receptors; mu & delta (Homo sapiens) (UniProt P41143+P35372); experiment: Selectivity for cloned human mu opioid receptor over delta opioid receptor; format: protein assay
Sequence (P35372 whole entry, looked up): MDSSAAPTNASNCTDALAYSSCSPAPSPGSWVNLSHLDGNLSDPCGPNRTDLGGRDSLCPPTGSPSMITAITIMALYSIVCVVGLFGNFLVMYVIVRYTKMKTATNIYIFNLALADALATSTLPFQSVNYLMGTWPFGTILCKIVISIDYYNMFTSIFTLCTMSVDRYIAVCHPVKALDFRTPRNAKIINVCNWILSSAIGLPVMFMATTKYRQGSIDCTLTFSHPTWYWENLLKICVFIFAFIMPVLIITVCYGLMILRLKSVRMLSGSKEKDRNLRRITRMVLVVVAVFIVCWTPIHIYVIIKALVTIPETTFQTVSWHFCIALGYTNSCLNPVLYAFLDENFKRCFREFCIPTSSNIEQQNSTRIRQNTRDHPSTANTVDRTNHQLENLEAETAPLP
Sequence (P41143 whole entry, looked up): as the sequence (P41143 whole entry, looked up) above

I would be grateful if you could share the reported Ratio Ki for CN1CCN(C(=O)N2CCC(c3ccccc3)(c3nccn3Cc3ccccc3)CC2)CC1 .
> 29

Query: Ratio Ki; subject: O=C(Nc1ccccc1)N1CCC(c2ccccc2)(c2nccn2Cc2cccc(F)c2)CC1
> 36

Which Ratio Ki value belongs to COc1cccc(Cn2ccnc2C2(c3ccccc3)CCN(C(=O)Nc3ccccc3)CC2)c1 ?
15

What Ratio Ki value was documented for this compound, COc1ccc(NC(=O)N2CCC(c3ccccc3)(c3nccn3Cc3ccccc3)CC2)cc1 ?
> 10

For c1ccc(Cn2ccnc2C2(c3ccccc3)CCN(c3nc4ccccc4s3)CC2)cc1 , what is its reported Ratio Ki?
> 63

// Ratio Ki lookup, key: c1ccc(Cn2ccnc2C2(c3ccccc3)CCN(c3ncccn3)CC2)cc1
> 258

----------
Answer each item with its documented pKi.
pKi: −log10 of the molar value.

Report pKi for CC(c1ccccc1)n1ccnc1C1(c2ccccc2)CCN(C(=O)Nc2ccccc2)CC1 (stereo not drawn) tested on UniProt:P35372.
6.30

So what pKi did CN(C(=O)N1CCC(c2ccccc2)(c2nccn2Cc2ccccc2)CC1)c1ccccc1 get with UniProt:P35372?
< 5.33

Item: c1ccc(Cn2ccnc2C2(c3ccccc3)CCN(c3nccs3)CC2)cc1 Test system: UniProt:P35372 Read-out: pKi Value: ?
< 5.33
